target: MMP-2FL (full length Gelatinase A) (Homo sapiens, UniProt P08253); assay: Thiopeptolide substrate hydrolysis assay, MMP-2FL; format: biochemical; details: HEPES pH 7.0, 22° C., read-out: IC50 (μM) Versus Certain MMPs: MMP-02 FL
Sequence (P08253 110-660, species assumed): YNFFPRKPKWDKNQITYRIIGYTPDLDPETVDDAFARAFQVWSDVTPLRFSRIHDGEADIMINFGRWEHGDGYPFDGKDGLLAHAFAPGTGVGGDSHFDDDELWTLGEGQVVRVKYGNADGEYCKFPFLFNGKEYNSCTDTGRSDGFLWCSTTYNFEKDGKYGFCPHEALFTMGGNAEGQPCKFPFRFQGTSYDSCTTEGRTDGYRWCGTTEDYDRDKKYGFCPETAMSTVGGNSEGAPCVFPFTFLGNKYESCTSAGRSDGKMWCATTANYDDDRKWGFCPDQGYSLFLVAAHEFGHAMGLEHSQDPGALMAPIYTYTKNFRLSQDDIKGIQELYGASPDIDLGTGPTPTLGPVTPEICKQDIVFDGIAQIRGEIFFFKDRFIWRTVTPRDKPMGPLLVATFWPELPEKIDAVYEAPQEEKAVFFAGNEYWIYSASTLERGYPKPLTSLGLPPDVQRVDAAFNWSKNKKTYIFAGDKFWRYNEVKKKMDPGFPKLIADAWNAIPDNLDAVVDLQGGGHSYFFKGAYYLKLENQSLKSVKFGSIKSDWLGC
Structures can show the parent of a compound that is named as a salt.
Exercise: state measured IC50 for each of the molecules provided.

Example molecules with recorded IC50:
// query # input molecule: `Cc1c(=O)n(Cc2ccc(Cl)cc2)c(=O)n2cc(C(=O)NCc3ccncc3)sc12` ; wanted: its IC50
// result > 30 µM

// query # input molecule: Cc1c(=O)n(Cc2ccc(C(=O)N3CCOCC3)cc2)c(=O)n2cc(C(=O)NCc3ccncc3)sc12 [Example 73, hydrochloride] ; wanted: its IC50
// result > 100 µM

Can you give me IC50 for all of these, one by one?
1. O=C(NCc1ccccc1)c1cn2c(=O)n(Cc3ccc(Cl)cc3)c(=O)cc2s1
2. Cc1c(=O)n(Cc2ccc(S(N)(=O)=O)cc2)c(=O)n2cc(C(=O)NCc3ccncc3)sc12 [Example 84, hydrochloride]

// result
1: > 100 µM; 2: > 100 µM

====

Exercise: state measured IC50 for each of the compounds provided.
Target: MMP-13CD (catalytic domain of collagenase 3) (Homo sapiens, UniProt P45452)
Assay: Thiopeptolide substrate hydrolysis assay, MMP-13CD
Type: biochemical
Conditions: IC50 (μM) Versus Certain MMPs: MMP-13 CD, thiopeptolide substrate, HEPES pH 7.0, 22° C.
Description: Thiopeptolide substrates show virtually no decomposition or hydrolysis at or below neutral pH in the absence of a matrix metalloproteinase enzyme.
Please state the number and follow it with the unit.

// query # input compound: Cc1c(=O)n(Cc2ccccc2)c(=O)n2cc(C(=O)NCc3ccc4[nH]ccc4c3)sc12 [Example 34] ; wanted: its IC50
// result 23 µM

// query # input compound: O=C(CCc1ccccc1)c1cn2c(=O)n(Cc3ccccc3)c(=O)cc2s1 [Example 8] ; wanted: its IC50
// result 6.6 µM

Now look at this entry.
// query # input compound: Cc1c(=O)n(Cc2ccccc2)c(=O)n2cc(C(=O)NCc3cnn(C)c3)sc12 [Example 39] ; wanted: its IC50
// result 2.3 µM

====

Exercise: state measured melting point for each of the compounds provided.

// query # input compound: COC(=O)c1ccc(Cn2c(=O)c(C)c3sc(C(=O)NCc4ccc(OC)cc4)cn3c2=O)cc1 [Example 103] ; wanted: its melting point
// result 163 to 165 °C

// query # input compound: COc1ccc(CNC(=O)c2cn3c(=O)n(Cc4ccc(Cl)c(Cl)c4)c(=O)cc3s2)cc1 [Example 102] ; wanted: its melting point
// result 206 to 207 °C

// query # input compound: O=C(NCc1ccc(Cl)c(Cl)c1)c1cn2c(=O)n(Cc3ccc(Cl)cc3)c(=O)cc2s1 [Example 14] ; wanted: its melting point
// result 218 to 219 °C

Now look at this entry.
// query # input compound: `O=c1cc2sccn2c(=O)n1Cc1ccc(Cl)cc1` ; wanted: its melting point
// result 152 to 153.5 °C

====

target: MMP-9FL (full length Gelatinase B) (Homo sapiens, UniProt P14780); assay: Thiopeptolide substrate hydrolysis assay, MMP-9FL; format: biochemical; conditions: HEPES pH 7.0, 22° C., read-out: IC50 (μM) Versus Certain MMPs: MMP-09 FL
Sequence (P14780 94-707, species assumed): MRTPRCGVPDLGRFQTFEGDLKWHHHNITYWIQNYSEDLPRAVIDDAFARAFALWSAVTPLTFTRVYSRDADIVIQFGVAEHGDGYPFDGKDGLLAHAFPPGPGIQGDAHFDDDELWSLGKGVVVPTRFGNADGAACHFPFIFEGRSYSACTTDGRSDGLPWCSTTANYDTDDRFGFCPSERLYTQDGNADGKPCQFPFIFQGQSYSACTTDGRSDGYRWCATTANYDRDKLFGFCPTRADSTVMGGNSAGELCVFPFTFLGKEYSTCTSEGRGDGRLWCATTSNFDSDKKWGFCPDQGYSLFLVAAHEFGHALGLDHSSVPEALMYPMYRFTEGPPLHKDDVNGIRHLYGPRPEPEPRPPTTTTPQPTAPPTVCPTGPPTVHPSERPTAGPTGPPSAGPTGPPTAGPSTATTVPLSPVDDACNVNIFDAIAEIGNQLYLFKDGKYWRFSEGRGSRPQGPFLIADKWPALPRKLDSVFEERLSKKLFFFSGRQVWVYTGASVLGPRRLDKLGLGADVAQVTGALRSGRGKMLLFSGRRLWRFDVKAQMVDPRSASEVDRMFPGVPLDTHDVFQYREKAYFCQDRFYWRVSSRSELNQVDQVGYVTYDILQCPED
assay-endpoint: IC50

Can you give me IC50 for all of these, one by one?
1. O=C(NCc1ccccc1)c1cn2c(=O)n(Cc3ccc(Cl)cc3)c(=O)cc2s1 [Example 13]
2. Cc1c(=O)n(Cc2ccccc2)c(=O)n2cc(C(=O)NCc3ccc(F)c(F)c3)sc12 [Example 43]

// result
1: > 100 µM; 2: > 30 µM
